- targetDesc: MAO-B of the brain of a rat (Rattus norvegicus)
- Sequence (P19643 1-520): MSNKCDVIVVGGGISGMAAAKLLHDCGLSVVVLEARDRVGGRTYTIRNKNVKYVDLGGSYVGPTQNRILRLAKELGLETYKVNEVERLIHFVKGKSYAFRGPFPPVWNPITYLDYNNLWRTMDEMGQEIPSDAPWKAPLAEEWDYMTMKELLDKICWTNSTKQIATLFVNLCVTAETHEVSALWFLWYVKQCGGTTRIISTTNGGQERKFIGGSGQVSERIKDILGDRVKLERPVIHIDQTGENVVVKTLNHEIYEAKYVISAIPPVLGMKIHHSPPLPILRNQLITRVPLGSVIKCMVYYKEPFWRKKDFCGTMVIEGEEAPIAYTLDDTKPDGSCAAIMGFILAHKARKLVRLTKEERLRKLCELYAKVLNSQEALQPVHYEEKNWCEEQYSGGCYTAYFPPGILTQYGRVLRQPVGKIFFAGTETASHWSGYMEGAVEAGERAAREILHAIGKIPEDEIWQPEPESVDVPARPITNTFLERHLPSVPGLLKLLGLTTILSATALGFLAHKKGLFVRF
readoutType: IC50 (µM)
Response body: numeric value in µM, unit text excluded.

Example compounds with recorded IC50:
C[C@H](N)[C@@H]1CN(c2ccc(OCc3cccc(Cl)c3)cc2)C(=O)O1 :: 1.64
COc1cccc(COc2ccc(N3C[C@H]([C@H](C)N(C)C)OC3=O)cc2)c1 :: 0.25
C[C@H]([C@H]1CN(c2ccc(OCc3cccc(Cl)c3)cc2)C(=O)O1)N(C)C (relative stereo) :: 20

q: // fetch IC50; item: C[C@@H](N)[C@H]1CN(c2ccc(OCc3cccc(Cl)c3)cc2)C(=O)O1 ; system: MAO-B of the brain of a rat (Rattus norvegicus)
a: 5.34
